Tested on: A375
Assay: SRB cell growth inhibition (cytotoxicity) assay
Format: cell-based, human
Details: Homo sapiens, A-375, 48 h, read-out: IC50 ± SEM (nM) A375, A375 melanoma cells, 48 h, SRB
Counter-ions that a name gives are not always drawn.
observable: IC50 (nM)

Cc1ccc(-c2nc(C(=O)c3ccc(F)cc3)c[nH]2)cc1 [12db-HCl] = 108

====

// Resistance factor lookup, one value per entry
Test system: NCI/ADR-RES
Test: SRB growth inhibition, P-gp over-expressing MDR line
Type: cell-based, human
Details: NCI/ADR-RES vs OVCAR-8; 5760 min
observable: Resistance factor

COc1cc(C(=O)c2csc(Nc3ccc(F)cc3)n2)cc(OC)c1OC = 0.6
COc1cc(C(=O)c2csc(-c3ccc(CN)cc3)n2)cc(OC)c1OC.Cl = 0.4
COc1cc(C(=O)c2csc(-c3ccc4[nH]ccc4c3)n2)cc(OC)c1OC [66a] = 0.4
COc1cc(C(=O)c2cccc(-c3ccccc3)n2)cc(OC)c1OC = 0.4
COc1cc(C(=O)c2csc(Nc3ccc(C)cc3)n2)cc(OC)c1OC = 0.8
COc1cc(C(=NC#N)c2csc(-c3ccccc3)n2)cc(OC)c1OC = 0.4
COc1cc(C(=O)c2csc(Nc3ccccc3)n2)cc(OC)c1OC = 0.6
